test.system: recombinant PRL-2 (Homo sapiens)
Construct: 6xHis (N, cleaved yes); made in house; host or cells: E. coli One Shot BL21 Star
Sequence (Q12974 whole entry): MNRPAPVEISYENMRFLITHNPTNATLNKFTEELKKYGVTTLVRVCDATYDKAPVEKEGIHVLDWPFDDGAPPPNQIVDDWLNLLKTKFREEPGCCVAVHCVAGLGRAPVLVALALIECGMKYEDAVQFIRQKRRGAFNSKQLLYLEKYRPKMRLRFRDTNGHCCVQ
measurement.protocol: In vitro phosphatase assay (DiFMUP hydrolysis), PRL-2;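 also: PRL-2 activity read as DiFMUP hydrolysis after 20 min at room temperature with drug, enzyme first pre-reduced at 4 °C for 20 min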
Type: biochemical
experimental.conditions: FDA-approved drug screen; compared to DMSO
Counter-ions that a name gives are not always drawn.
Readings of % Phosphatase Activity (compared to DMSO) PRL-2 for the listed compounds
The reply should contain only the number, in %.

Past entries and their recorded results:
CC1=NS(=O)(=O)c2cc(Cl)ccc2N1 [Diazoxide]; 94
CC1=C(C(=O)O)N2C(=O)[C@@H](NC(=O)[C@H](N)c3ccccc3)[C@H]2SC1; 81

Field: next compound
QUERY: What value of measured % Phosphatase Activity (compared to DMSO) PRL-2 is listed for CN(Cc1cc(Br)cc(Br)c1N)C1CCCCC1 [Bromhexine HCl] ?
RESULT: 122

---

molecules and their reported % Phosphatase Activity (compared to DMSO) PRL-3
test.system: recombinant PRL-3 (Homo sapiens, UniProt O75365)
Construct: 6xHis (N, cleaved yes); made in house; host or cells: E. coli One Shot BL21 Star
Sequence (O75365 whole entry): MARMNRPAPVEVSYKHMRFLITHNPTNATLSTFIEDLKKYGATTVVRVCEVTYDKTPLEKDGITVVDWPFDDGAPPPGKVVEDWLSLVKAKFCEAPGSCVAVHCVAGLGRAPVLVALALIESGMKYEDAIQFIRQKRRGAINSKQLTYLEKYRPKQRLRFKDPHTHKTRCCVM
measurement.protocol: In vitro phosphatase assay (DiFMUP hydrolysis), PRL-3
Format: biochemical
Where a name gives a salt, the structure may show the parent alone.
// note: answer is a bare numeric in %

Use the examples below as a reference point.
Cl.Cl.O=C(O)COCCN1CCN(C(c2ccccc2)c2ccc(Cl)cc2)CC1 (stereo not shown) [Cetirizine DiHCl]; 84
CNCC[C@H](Oc1cccc2ccccc12)c1cccs1 [Duloxetine HCl]; 89
O=C([O-])c1ccccc1O.[Na+] [Sodium salicylate]; 95
C[C@]12Cc3c[nH]nc3C[C@@H]1CC[C@@H]1[C@@H]2CC[C@@]2(C)[C@H]1CC[C@]2(C)O; 93
CC(C)OC(=O)[C@H](C)N[P@](=O)(CO[C@H](C)Cn1cnc2c(N)ncnc21)Oc1ccccc1 [Tenofovir Alafenamide (GS-7340)]; 91
O=C(O[C@H]1C[N+]2(CCCOc3ccccc3)CCC1CC2)C(O)(c1cccs1)c1cccs1 [Aclidinium Bromide]; 90

Please look at the following molecule next.
QUERY: Fill in the blank: the reported % Phosphatase Activity (compared to DMSO) PRL-3 of CC(C)NCC(O)COc1ccc(CCOCC2CC2)cc1 (stereo not shown) is ____.
RESULT: 80

---

test.system: recombinant PRL-3 (Homo sapiens, UniProt O75365)
Construct: 6xHis (N, cleaved yes); made in house; host or cells: E. coli One Shot BL21 Star
measurement.protocol: In vitro phosphatase assay (DiFMUP hydrolysis), PRL-3
Assay type: biochemical
experimental.conditions: FDA-approved drug screen; compared to DMSO
Structures can show the parent of a compound that is named as a salt.
Rule: % Phosphatase Activity (compared to DMSO) PRL-3 under 90% gives not fulfilled, otherwise fulfilled.

O=C1CC[C@@]2(O)[C@H]3Cc4ccc(O)c5c4[C@@]2(CCN3CC2CC2)[C@H]1O5 [Naltrexone HCl]; fulfilled
CCCCOC(=O)c1ccc(O)cc1; not fulfilled
Cc1ccc(F)c(NC(=O)Nc2ccc(-c3cccc4[nH]nc(N)c34)cc2)c1; fulfilled
COc1ccc2cccc(CCNC(C)=O)c2c1; not fulfilled
C[C@]12CCC(=O)C=C1CC[C@@H]1[C@@H]2[C@@H](O)C[C@@]2(C)[C@H]1CC[C@]2(O)C(=O)CO [Hydrocortisone]; not fulfilled
COc1c(N2C[C@@H]3CCCN[C@@H]3C2)c(F)cc2c(=O)c(C(=O)O)cn(C3CC3)c12 [Moxifloxacin HCl]; fulfilled
COC(=O)c1ccc2c(c1)NC(=O)/C2=C(\Nc1ccc(N(C)C(=O)CN2CCN(C)CC2)cc1)c1ccccc1; not fulfilled
Cc1cn[nH]c1 [Fomepizole]; not fulfilled

QUERY: Exam item: decide whether the reported % Phosphatase Activity (compared to DMSO) PRL-3 for NS(=O)(=O)c1cc(C(=O)O)c(NCc2ccco2)cc1Cl [Furosemide] is at least 90%.
RESULT: fulfilled

QUERY: Would you mind doing NC(=O)NO [Hydroxyurea] as well?
RESULT: fulfilled

QUERY: Next record, please: Cc1onc(-c2c(Cl)cccc2Cl)c1C(=O)N[C@@H]1C(=O)N2[C@@H]1SC(C)(C)[C@@H]2C(=O)O [Dicloxacillin Sodium]
RESULT: not fulfilled

QUERY: Next: Cn1c(=O)c2c(ncn2CC(O)CO)n(C)c1=O (centres unmarked)
RESULT: not fulfilled

QUERY: What do we get for COC(=O)N[C@H](C(=O)N[C@@H](Cc1ccccc1)[C@@H](O)CN(Cc1ccc(-c2ccccn2)cc1)NC(=O)[C@@H](NC(=O)OC)C(C)(C)C)C(C)(C)C ?
RESULT: not fulfilled
